# reported kon; entries follow
- Target entity: T1, cynomolgus monkey IL-6 (cynomolgus monkey, UniProt P79341 28-212, limits assumed)
- T1 construct: also called HIS-cyIL-6
- Experimental protocol: SPR; periplasmic fraction
The reply should be a number in M⁻¹ s⁻¹, with the unit left off.

Use these answered entries as a reference point.
For the binder Fab 55E2 (Fab, V domains shown, VL-shuffled Fab of 29B11, periplasmic fraction; also called 55E2b) VH: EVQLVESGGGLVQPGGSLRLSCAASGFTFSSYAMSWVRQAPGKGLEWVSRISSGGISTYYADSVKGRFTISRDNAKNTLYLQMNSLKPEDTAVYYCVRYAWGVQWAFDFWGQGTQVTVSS VL: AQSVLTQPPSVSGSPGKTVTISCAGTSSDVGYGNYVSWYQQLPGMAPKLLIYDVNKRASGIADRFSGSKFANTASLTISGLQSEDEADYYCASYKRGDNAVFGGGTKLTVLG , what kon is on record?
468000

Also Fab 48C10 (Fab, V domains shown, VL-shuffled Fab of 29B11, periplasmic fraction) VH: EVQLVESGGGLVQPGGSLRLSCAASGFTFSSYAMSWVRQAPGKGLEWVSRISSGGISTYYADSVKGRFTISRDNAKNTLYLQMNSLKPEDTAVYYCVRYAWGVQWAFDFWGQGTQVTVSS VL: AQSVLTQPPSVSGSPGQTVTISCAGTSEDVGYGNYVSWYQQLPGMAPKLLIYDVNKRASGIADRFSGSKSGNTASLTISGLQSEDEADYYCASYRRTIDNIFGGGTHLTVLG ?
180000

Now give it for Fab 47C2 (Fab, V domains shown, VL-shuffled Fab of 29B11, periplasmic fraction; also called 47C2 (R4)) VH: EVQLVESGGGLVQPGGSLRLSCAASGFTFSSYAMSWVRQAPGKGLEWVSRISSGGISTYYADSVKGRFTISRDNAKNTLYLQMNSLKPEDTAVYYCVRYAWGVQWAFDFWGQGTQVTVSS VL: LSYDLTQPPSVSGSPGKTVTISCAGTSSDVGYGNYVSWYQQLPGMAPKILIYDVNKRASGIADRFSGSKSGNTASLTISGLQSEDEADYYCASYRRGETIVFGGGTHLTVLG too.
851000

Others:
Could you share which kon value was measured for Fab 29B11 (Fab, V domains shown, Fab) VH: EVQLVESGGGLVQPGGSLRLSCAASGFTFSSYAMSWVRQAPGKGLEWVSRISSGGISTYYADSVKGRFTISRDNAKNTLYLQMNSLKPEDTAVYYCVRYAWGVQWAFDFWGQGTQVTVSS VL: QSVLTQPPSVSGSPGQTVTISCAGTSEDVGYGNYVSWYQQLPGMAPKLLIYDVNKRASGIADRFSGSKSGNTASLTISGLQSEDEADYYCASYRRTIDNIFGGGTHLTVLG ?
113000

Next record, please: Fab 55C1 (Fab, V domains shown, VL-shuffled Fab of 29B11, periplasmic fraction; also called 55C1a) VH: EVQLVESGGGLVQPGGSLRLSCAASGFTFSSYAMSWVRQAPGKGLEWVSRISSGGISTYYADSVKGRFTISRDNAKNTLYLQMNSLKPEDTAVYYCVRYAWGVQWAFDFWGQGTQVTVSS VL: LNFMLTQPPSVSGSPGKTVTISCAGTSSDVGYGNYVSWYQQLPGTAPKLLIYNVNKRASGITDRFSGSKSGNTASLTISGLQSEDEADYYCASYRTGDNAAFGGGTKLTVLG
475000

Fab 55H1 (Fab, V domains shown, VL-shuffled Fab of 29B11, periplasmic fraction; also called 55H1c) VH: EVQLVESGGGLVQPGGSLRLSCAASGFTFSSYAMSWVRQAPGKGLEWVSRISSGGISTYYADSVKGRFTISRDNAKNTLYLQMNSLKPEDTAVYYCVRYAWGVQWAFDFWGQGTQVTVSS VL: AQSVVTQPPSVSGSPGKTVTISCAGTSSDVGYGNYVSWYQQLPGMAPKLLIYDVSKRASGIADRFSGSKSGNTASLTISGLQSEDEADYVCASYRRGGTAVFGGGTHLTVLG , same question.
1.16e+06
